testMethodNotes: chemical genetic growth profiling, strain panel (AID 1159580);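 further: tested at 20 µM; growth read once vehicle control cultures reached saturation at 30 °C; 1 = growth at the plate median or of vehicle wells; lower values mean less growth of the strain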
conditionNotes: S. cerevisiae deletion strains, growth OD, locus YCL016C, strain dcc1, active compounds read low
Hit rate of the full screen: of about 5,500 compounds, about 2,000 (36%) were called active. About 18% were inconclusive and are not listed. Some of the results follow.
propertyMeasured: normalized growth
Give bare numbers.

Solved cases (3 shown):
Please give measured normalized growth of the following entry: Nc1c(Br)cc(Br)cc1CNC1CCC(O)CC1 (stereo not given)
1.01

Please give measured normalized growth of the following entry: "CCn1cc(C(=O)O)c(=O)c2ccc(C)nc21"
0.945

Please give measured normalized growth of the following entry: "CCn1cc(C(=O)O)c(=O)c2cnc(N3CCCC3)nc21"
1

For each of the molecules below, state normalized growth.
1. O=C(O)c1ccc2c(c1)OCO2
2. COc1ccc(CN(CCN(C)C)c2ncccn2)cc1
3. COc1cc(/C=C/C(=O)O)cc(OC)c1OC
4. COc1ccc2c(c1O)-c1c(OC)c(OC)cc3c1[C@H](C2)N(C)CC3
5. COc1cc(C)c2c(c1C=O)Oc1c(c(C)c(O)c3c1C(O)OC3=O)OC2=O (stereo not given)

1. 1.01
2. 1.01
3. 0.994
4. 0.983
5. 1.03

For each of the molecules below, state normalized growth.
1. CC1(C)O[C@@H]2[C@@H](CO[C@@]3(COS(N)(=O)=O)OC(C)(C)O[C@@H]23)O1
2. COc1ccccc1OCC(O)CN1CCN(CC(=O)Nc2c(C)cccc2C)CC1 (stereo not given)
3. O=C(NC(Cc1cc(=O)[nH]c2ccccc12)C(=O)O)c1ccc(Cl)cc1 (stereo not given)
4. COc1ccc(/C=C/C(=O)O)cc1OC
5. C=CCN1CC[C@]23c4c5ccc(O)c4OC2C(=O)CC[C@@]3(O)[C@H]1C5 (stereo not given in full)
6. CCC(COC(=O)c1cc(OC)c(OC)c(OC)c1)(c1ccccc1)N(C)C (stereo not given)
7. CC1(C)O[C@@H]2CC3C4CCC5=CC(=O)C=C[C@]5(C)C4[C@@H](O)C[C@]3(C)[C@]2(C(=O)CO)O1 (stereo not given in full)

1.04
1.04
0.994
1.04
0.986
0.99
1.01

For each of the molecules below, state normalized growth.
1. CCN(CC)CCOC(=O)C(Cc1cccc2ccccc12)CC1CCCO1 (stereo not given)
2. COP(=S)(OC)Oc1ccc(SC)c(C)c1
3. CN(Cc1cc(Br)cc(Br)c1N)C1CCCCC1
4. COS(C)(=O)=O
5. NCCCCN=C(N)N

1. 1.01
2. 0.954
3. 1.01
4. 1
5. 1.01
